measurement description: Quantitative determination of solubility of compound 5 (UPLC)
Assay type: physicochemical
cond: aqueous acid solution (350 mM malic acid in water), 25 °C, aqueous buffer, thermodynamic from solid, Malic acid 350 mM in water, read-out: Solubility T = 3 Days
property: solubility at 3 days (mg/mL)
Your answer should be a plain number; it is taken to be in mg/mL.

Give its solubility at 3 days value. Item: COc1cc(NCCNC(=O)/C=C/C(C)(F)F)ccn1
117

----------
measurement description: PK studies of formulations, plasma by HPLC-MS/MS
Type: in vivo
cond: bovine, plasma, sc, 1 mg/kg, pH 4.4, FormO50 (L-tartaric acid, NaOH up to pH 4.4, water), Cattle, 1 mg/kg, read-out: AUC
property: AUC (µg·h/mL)
Report the value in µg·h/mL with no unit label.

Reported AUC for COc1cc(NCCNC(=O)/C=C/C(C)(F)F)ccn1 : what is it?
0.973
